Entry source: paper PMC9000887

Biological target: EGFR (Homo sapiens, UniProt P00533)
Sequence (P00533 25-1210): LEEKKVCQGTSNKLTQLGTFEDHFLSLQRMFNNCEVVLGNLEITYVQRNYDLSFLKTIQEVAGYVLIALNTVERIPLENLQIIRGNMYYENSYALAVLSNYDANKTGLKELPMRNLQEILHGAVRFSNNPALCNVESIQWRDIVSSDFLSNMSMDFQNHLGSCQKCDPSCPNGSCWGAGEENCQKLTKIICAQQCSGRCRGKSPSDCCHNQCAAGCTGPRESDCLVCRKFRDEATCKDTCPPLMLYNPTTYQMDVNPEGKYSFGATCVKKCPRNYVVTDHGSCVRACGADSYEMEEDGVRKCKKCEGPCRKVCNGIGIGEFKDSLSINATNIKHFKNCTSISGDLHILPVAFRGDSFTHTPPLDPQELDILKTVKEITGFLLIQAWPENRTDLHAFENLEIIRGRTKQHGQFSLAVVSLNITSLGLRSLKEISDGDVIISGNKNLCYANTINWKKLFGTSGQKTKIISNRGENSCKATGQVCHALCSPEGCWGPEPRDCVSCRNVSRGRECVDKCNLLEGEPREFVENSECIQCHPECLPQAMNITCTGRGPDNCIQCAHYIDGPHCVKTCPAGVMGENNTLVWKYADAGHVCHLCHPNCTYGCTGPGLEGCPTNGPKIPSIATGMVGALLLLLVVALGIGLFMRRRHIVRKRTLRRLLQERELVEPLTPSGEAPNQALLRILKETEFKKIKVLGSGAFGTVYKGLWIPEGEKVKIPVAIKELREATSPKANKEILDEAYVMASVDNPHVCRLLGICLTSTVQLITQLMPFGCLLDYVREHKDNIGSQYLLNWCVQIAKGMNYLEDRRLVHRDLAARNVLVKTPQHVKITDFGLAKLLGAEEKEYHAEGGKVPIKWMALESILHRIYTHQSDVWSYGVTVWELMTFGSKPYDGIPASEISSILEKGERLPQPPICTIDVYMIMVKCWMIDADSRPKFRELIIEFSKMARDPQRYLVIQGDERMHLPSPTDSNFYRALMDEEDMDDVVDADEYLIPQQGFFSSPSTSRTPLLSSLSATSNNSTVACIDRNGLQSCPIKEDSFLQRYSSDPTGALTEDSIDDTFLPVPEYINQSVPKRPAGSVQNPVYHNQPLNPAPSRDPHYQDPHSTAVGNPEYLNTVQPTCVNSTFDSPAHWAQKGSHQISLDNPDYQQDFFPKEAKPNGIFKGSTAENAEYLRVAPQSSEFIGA
pIC50: −log10 of the molar value.
measured-attribute: pIC50

P: O=c1cc(-c2ccccc2)c2ccc(OCc3nnn(CC(O)CO)n3)cc2o1 (centres unmarked)
Q: CC(=O)OC[C@H]1O[C@@H](n2cc(COc3ccc4c(-c5ccccc5)cc(=O)oc4c3)nn2)[C@H](OC(C)=O)[C@@H](OC(C)=O)[C@@H]1OC(C)=O
Lookup: Compare the recorded pIC50 of P and Q ; state which is larger. Your choice should be expressed through its label.
Found: P

====

System: human prostate (PC-3) cancer cell line
Test: MTT cytotoxicity assay, PC-3
Conditions: Homo sapiens, read-out: % Inhibition PC-3
# Lookup of reported inhibition at 100 µM keyed by entry
Express the result in % but write the number alone.

Sample answers from the record:
• O=c1cc(-c2ccccc2)c2ccc(OCc3nnn([C@@H]4O[C@H](CO)[C@H](O)[C@H](O)[C@H]4O)n3)cc2o1 = 0
• O=c1cc(-c2ccccc2)c2ccc(OCc3cn([C@@H]4O[C@H](CO)[C@H](O)[C@H](O)[C@H]4O)nn3)cc2o1 = 97.3
• O=c1cc(-c2ccccc2)c2ccc(O)cc2o1 [Compound 1, 7-hydroxy-4-phenyl-2H-chromen-2-one] = 55.7
• CC(=O)OC[C@H]1O[C@@H](n2cc(COc3ccc4c(-c5ccccc5)cc(=O)oc4c3)nn2)[C@H](OC(C)=O)[C@@H](OC(C)=O)[C@H]1OC(C)=O = 80.2
• O=c1cc(-c2ccccc2)c2ccc(OCc3cn([C@@H]4O[C@H](CO)[C@@H](O)[C@H](O)[C@H]4O)nn3)cc2o1 = 95.8

Lookup: For the compound CC(=O)OC[C@H]1O[C@@H](n2nnc(COc3ccc4c(-c5ccccc5)cc(=O)oc4c3)n2)[C@H](OC(C)=O)[C@@H](OC(C)=O)[C@H]1OC(C)=O , report inhibition at 100 µM.
Found: 15

Lookup: For the compound O=c1cc(-c2ccccc2)c2ccc(OCc3nn[nH]n3)cc2o1 , report inhibition at 100 µM.
Found: 12.2

Lookup: For the compound O=c1cc(-c2ccccc2)c2ccc(OCc3nnn(CCOCCO)n3)cc2o1 , report inhibition at 100 µM.
Found: 95.9

Lookup: For the compound N#CCOc1ccc2c(-c3ccccc3)cc(=O)oc2c1 , report inhibition at 100 µM.
Found: 10.5

Lookup: For the compound O=c1cc(-c2ccccc2)c2ccc(OCc3nnn(CC(O)CO)n3)cc2o1 (centres unmarked) , report inhibition at 100 µM.
Found: 99.2

Lookup: For the compound C#CCOc1ccc2c(-c3ccccc3)cc(=O)oc2c1 , report inhibition at 100 µM.
Found: 16.7
